Attribution: paper PMC10090446

- assay-method-text: Steady-state plasma concentrations of polymyxin B (total of B1, B2, B1-Ile) by LC-MS/MS
- Type: in vivo
- condition-summary: human, iv, 50 mg, patient ID 7, TIME 306.5, DOSE 50 from 0, ADDL 25, II 12, DUR 1, WT 52, CCR 121.16, ALB 32.1, APACHE 21, single sample, read-out: OUT (observed polymyxin B plasma concentration)
- Description: We gather data from critically ill patients (≥18 years old) who were given intravenous drip polymyxin B treatment with blood concentration monitoring at the hospital from November 2021 to September 2022. […] According to previous studies, total polymyxin B1, polymyxin B2, and polymyxin B1-Ile concentrations in human blood plasma were quantified using LC-MS/MS ([Meng et al., 2016]; [Hee et al., 2017]). […]
Positions of bridges follow the written chain, without caps; N, C: chain ends. Non-standard residues stand in square brackets, D forms with d. Residues, ends and D or L forms follow the SMILES beside them. *: point of attachment. X1 = CC[C@H](C)CCCCC(=O)*; Dab = NCC[C@H](N)C(=O)O
measurement-kind: level at 306.5 h

// query Please give the documented level at 306.5 h of CC[C@H](C)CCCCC(=O)N[C@@H](CCN)C(=O)N[C@H](C(=O)N[C@@H](CCN)C(=O)N[C@H]1CCNC(=O)[C@H]([C@@H](C)O)NC(=O)[C@H](CCN)NC(=O)[C@H](CCN)NC(=O)[C@H](CC(C)C)NC(=O)[C@@H](Cc2ccccc2)NC(=O)[C@H](CCN)NC1=O)[C@@H](C)O [polymyxin B] (X1-[Dab]T[Dab][Dab][Dab][dF]L[Dab][Dab]T; lactam 4-C)
// result 4180 ng/mL

----------
- assay-method-text: Steady-state plasma concentrations of polymyxin B (total of B1, B2, B1-Ile) by LC-MS/MS
- Format: in vivo
- condition-summary: human, iv, 75 mg, patient ID 12, TIME 108, DOSE 75 from 0, ADDL 9, II 12, DUR 1, WT 60, CCR 104.47, ALB 33.9, APACHE 24, single sample, read-out: OUT (observed polymyxin B plasma concentration)
Positions of bridges follow the written chain, without caps; N, C: chain ends. Non-standard residues stand in square brackets, D forms with d. Residues, ends and D or L forms follow the SMILES beside them. *: point of attachment. X1 = CC[C@H](C)CCCCC(=O)*; Dab = NCC[C@H](N)C(=O)O
measurement-kind: level at 108 h

// query Query level at 108 h for CC[C@H](C)CCCCC(=O)N[C@@H](CCN)C(=O)N[C@H](C(=O)N[C@@H](CCN)C(=O)N[C@H]1CCNC(=O)[C@H]([C@@H](C)O)NC(=O)[C@H](CCN)NC(=O)[C@H](CCN)NC(=O)[C@H](CC(C)C)NC(=O)[C@@H](Cc2ccccc2)NC(=O)[C@H](CCN)NC1=O)[C@@H](C)O [polymyxin B] (X1-[Dab]T[Dab][Dab][Dab][dF]L[Dab][Dab]T; lactam 4-C)
// result 2990 ng/mL

----------
- assay-method-text: Steady-state plasma concentrations of polymyxin B (total of B1, B2, B1-Ile) by LC-MS/MS
- Assay type: in vivo
- condition-summary: human, iv, patient ID 13, TIME 156, DOSE 75 at 0 then 50 every 12 from 12 (ADDL 12), DUR 1, WT 57, CCR 41.39, ALB 24.4, APACHE 18, single measurement, read-out: OUT (observed polymyxin B plasma concentration)
Positions of bridges follow the written chain, without caps; N, C: chain ends. Non-standard residues stand in square brackets, D forms with d. Residues, ends and D or L forms follow the SMILES beside them. *: point of attachment. X1 = CC[C@H](C)CCCCC(=O)*; Dab = NCC[C@H](N)C(=O)O
measurement-kind: level at 156 h (ng/mL)
// return numeric value only (unit: ng/mL, not printed)

// query Annotate the molecule CC[C@H](C)CCCCC(=O)N[C@@H](CCN)C(=O)N[C@H](C(=O)N[C@@H](CCN)C(=O)N[C@H]1CCNC(=O)[C@H]([C@@H](C)O)NC(=O)[C@H](CCN)NC(=O)[C@H](CCN)NC(=O)[C@H](CC(C)C)NC(=O)[C@@H](Cc2ccccc2)NC(=O)[C@H](CCN)NC1=O)[C@@H](C)O [polymyxin B] (X1-[Dab]T[Dab][Dab][Dab][dF]L[Dab][Dab]T; lactam 4-C) with its measured level at 156 h.
// result 1090
